Target: T1, Cre recombinase monomer with K201R mutation
T1 chain: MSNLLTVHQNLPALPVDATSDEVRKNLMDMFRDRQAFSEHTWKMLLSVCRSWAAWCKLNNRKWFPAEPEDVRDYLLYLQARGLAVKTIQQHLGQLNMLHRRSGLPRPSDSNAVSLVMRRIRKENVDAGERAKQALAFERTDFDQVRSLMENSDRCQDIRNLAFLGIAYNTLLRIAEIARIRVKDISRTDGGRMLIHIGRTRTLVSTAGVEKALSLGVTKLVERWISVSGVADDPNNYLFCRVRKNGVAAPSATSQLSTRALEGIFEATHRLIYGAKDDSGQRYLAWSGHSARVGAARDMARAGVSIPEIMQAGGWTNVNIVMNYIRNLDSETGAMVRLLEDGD
Please use true (1) whenever Median dimer activity (recombination on loxP) is not below 40%, and false (0) whenever it is.

Protein: Cre recombinase monomer with E176M mutation (protein) MSNLLTVHQNLPALPVDATSDEVRKNLMDMFRDRQAFSEHTWKMLLSVCRSWAAWCKLNNRKWFPAEPEDVRDYLLYLQARGLAVKTIQQHLGQLNMLHRRSGLPRPSDSNAVSLVMRRIRKENVDAGERAKQALAFERTDFDQVRSLMENSDRCQDIRNLAFLGIAYNTLLRIAMIARIRVKDISRTDGGRMLIHIGRTKTLVSTAGVEKALSLGVTKLVERWISVSGVADDPNNYLFCRVRKNGVAAPSATSQLSTRALEGIFEATHRLIYGAKDDSGQRYLAWSGHSARVGAARDMARAGVSIPEIMQAGGWTNVNIVMNYIRNLDSETGAMVRLLEDGD
Label Class: false (0)
--
Protein: Cre recombinase monomer with K201M mutation (protein) MSNLLTVHQNLPALPVDATSDEVRKNLMDMFRDRQAFSEHTWKMLLSVCRSWAAWCKLNNRKWFPAEPEDVRDYLLYLQARGLAVKTIQQHLGQLNMLHRRSGLPRPSDSNAVSLVMRRIRKENVDAGERAKQALAFERTDFDQVRSLMENSDRCQDIRNLAFLGIAYNTLLRIAEIARIRVKDISRTDGGRMLIHIGRTMTLVSTAGVEKALSLGVTKLVERWISVSGVADDPNNYLFCRVRKNGVAAPSATSQLSTRALEGIFEATHRLIYGAKDDSGQRYLAWSGHSARVGAARDMARAGVSIPEIMQAGGWTNVNIVMNYIRNLDSETGAMVRLLEDGD
Label Class: true (1)

// query Given the entry Cre recombinase monomer with K201F mutation (protein) MSNLLTVHQNLPALPVDATSDEVRKNLMDMFRDRQAFSEHTWKMLLSVCRSWAAWCKLNNRKWFPAEPEDVRDYLLYLQARGLAVKTIQQHLGQLNMLHRRSGLPRPSDSNAVSLVMRRIRKENVDAGERAKQALAFERTDFDQVRSLMENSDRCQDIRNLAFLGIAYNTLLRIAEIARIRVKDISRTDGGRMLIHIGRTFTLVSTAGVEKALSLGVTKLVERWISVSGVADDPNNYLFCRVRKNGVAAPSATSQLSTRALEGIFEATHRLIYGAKDDSGQRYLAWSGHSARVGAARDMARAGVSIPEIMQAGGWTNVNIVMNYIRNLDSETGAMVRLLEDGD , answer whether its Median dimer activity (recombination on loxP) meets or surpasses 40%.
// result true (1)

// query Given the entry Cre recombinase monomer with E129R mutation (protein) MSNLLTVHQNLPALPVDATSDEVRKNLMDMFRDRQAFSEHTWKMLLSVCRSWAAWCKLNNRKWFPAEPEDVRDYLLYLQARGLAVKTIQQHLGQLNMLHRRSGLPRPSDSNAVSLVMRRIRKENVDAGRRAKQALAFERTDFDQVRSLMENSDRCQDIRNLAFLGIAYNTLLRIAEIARIRVKDISRTDGGRMLIHIGRTKTLVSTAGVEKALSLGVTKLVERWISVSGVADDPNNYLFCRVRKNGVAAPSATSQLSTRALEGIFEATHRLIYGAKDDSGQRYLAWSGHSARVGAARDMARAGVSIPEIMQAGGWTNVNIVMNYIRNLDSETGAMVRLLEDGD , answer whether its Median dimer activity (recombination on loxP) meets or surpasses 40%.
// result false (0)

// query Given the entry Cre recombinase monomer with K201A mutation (protein) MSNLLTVHQNLPALPVDATSDEVRKNLMDMFRDRQAFSEHTWKMLLSVCRSWAAWCKLNNRKWFPAEPEDVRDYLLYLQARGLAVKTIQQHLGQLNMLHRRSGLPRPSDSNAVSLVMRRIRKENVDAGERAKQALAFERTDFDQVRSLMENSDRCQDIRNLAFLGIAYNTLLRIAEIARIRVKDISRTDGGRMLIHIGRTATLVSTAGVEKALSLGVTKLVERWISVSGVADDPNNYLFCRVRKNGVAAPSATSQLSTRALEGIFEATHRLIYGAKDDSGQRYLAWSGHSARVGAARDMARAGVSIPEIMQAGGWTNVNIVMNYIRNLDSETGAMVRLLEDGD , answer whether its Median dimer activity (recombination on loxP) meets or surpasses 40%.
// result true (1)
